Origin of measurements: the supplement of paper PMC9262897

Test system: E. coli TESEC Mtb Asd
Assay: growth (OD600 after 10 h); higher = more growth (less inhibition)
Conditions: arabinose induction (level): High; compound 0.1 mM; raw OD600 reference: median of DMSO wells 0.331, cell-free background 0.041
Where a name gives a salt, the structure may show the parent alone.
Assign class by growth: not lower than 0.2 means fulfilled; lower than 0.2 means not fulfilled.

>  <Compound>
CN(C)CCN(Cc1ccccc1)c1ccccn1 [Tripelennamine hydrochloride]

>  <Category label>
fulfilled

$$$$
>  <Compound>
N#Cc1cc(NC(=O)C(=O)O)c(Cl)c(NC(=O)C(=O)O)c1 [Lodoxamide]

>  <Category label>
fulfilled

$$$$
>  <Compound>
Clc1ccccc1C(c1ccccc1)(c1ccccc1)n1ccnc1

>  <Category label>
not fulfilled

$$$$
>  <Compound>
CN1CCN(CCCN2c3ccccc3Sc3ccc(Cl)cc32)CC1 [Prochlorperazine dimaleate]

>  <Category label>
not fulfilled

$$$$
>  <Compound>
O=C(C1CCCCC1)N1CC(=O)N2CCc3ccccc3C2C1 (configuration not stated)

>  <Category label>
fulfilled

$$$$
>  <Compound>
O=C1CC2(CCCC2)CC(=O)N1CCCCN1CCN(c2ncccn2)CC1 [Buspirone hydrochloride]

>  <Category label>
fulfilled

$$$$
>  <Compound>
CCOC(=O)C1=C(C)NC(C)=C(C(=O)OC)C1c1cccc([N+](=O)[O-])c1 (configuration not stated)

>  <Category label>
fulfilled

$$$$
>  <Compound>
O=C1OC(CN2CCOCC2)CN1/N=C/c1ccc([N+](=O)[O-])o1 (configuration not stated) [Furaltadone hydrochloride]

>  <Category label>
not fulfilled

$$$$
>  <Compound>
CCCN(CCC)CCc1cccc2c1CC(=O)N2 [Ropinirole HCl]

>  <Category label>
fulfilled

$$$$
>  <Compound>
Clc1ccc(C(Cn2ccnc2)OCc2c(Cl)cccc2Cl)c(Cl)c1 (configuration not stated)

>  <Category label>
not fulfilled

$$$$
>  <Compound>
Cc1cnc(C(=O)O)c[n+]1[O-]

>  <Category label>
fulfilled

$$$$
>  <Compound>
O=C(O[C@@H]1C[C@@H]2C[C@H]3C[C@H](C1)N2CC3=O)c1c[nH]c2ccccc12 [Dolasetron mesilate]

>  <Category label>
fulfilled

$$$$
>  <Compound>
CC(C)(C)NC(=O)[C@H]1CC[C@H]2[C@@H]3CC[C@H]4NC(=O)C=C[C@]4(C)[C@H]3CC[C@]12C [Finasteride]

>  <Category label>
fulfilled

$$$$
>  <Compound>
C#C[C@]1(OC(C)=O)CC[C@H]2[C@@H]3CCC4=CC(=NO)CC[C@@H]4[C@H]3CC[C@@]21CC (mixture of isomers) [Norgestimate]

>  <Category label>
not fulfilled

$$$$
>  <Compound>
CN(Cc1cc(Br)cc(Br)c1N)C1CCCCC1 [Bromhexine hydrochloride]

>  <Category label>
not fulfilled

$$$$
>  <Compound>
COc1ccc(CN2CCN(C(c3ccc(F)cc3)c3ccc(F)cc3)CC2)c(OC)c1OC [Lomerizine hydrochloride]

>  <Category label>
not fulfilled

$$$$

====

Test system: E. coli TESEC Mtb DapB
Test: growth (OD600 after 10 h); higher = more growth (less inhibition)
Details: arabinose induction (level): High; compound 0.1 mM; raw OD600 reference: median of DMSO wells […], cell-free background 0.041
Counter-ions that a name gives are not always drawn.

>  <Compound>
N=C(N)NC(=O)c1nc(Cl)c(N)nc1N [Amiloride hydrochloride dihydrate]

>  <growth>
0.203

$$$$
>  <Compound>
CN(C)CCN(Cc1ccccc1)c1ccccn1 [Tripelennamine hydrochloride]

>  <growth>
0.177

$$$$
>  <Compound>
C#C[C@]1(O)CC[C@H]2[C@@H]3CCC4=Cc5oncc5C[C@]4(C)[C@H]3CC[C@@]21C [Danazol]

>  <growth>
0.169

$$$$
>  <Compound>
Cc1cnc(NC(=O)C2=C(O)c3ccccc3S(=O)(=O)N2C)s1 [Meloxicam]

>  <growth>
0.201

$$$$
